experimental_target: Grb2 SH2 (UniProt P62993)
Sequence (P62993 whole entry, looked up, the tested form may be a part): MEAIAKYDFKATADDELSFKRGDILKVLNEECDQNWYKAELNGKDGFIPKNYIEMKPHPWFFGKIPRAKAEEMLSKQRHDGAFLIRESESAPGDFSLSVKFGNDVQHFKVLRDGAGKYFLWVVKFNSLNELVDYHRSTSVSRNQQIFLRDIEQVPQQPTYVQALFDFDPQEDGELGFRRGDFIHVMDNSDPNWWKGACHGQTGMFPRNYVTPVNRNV
protocol: SH2 binding enrichment of the phosphorylated peptide, bacterial display (enrichment ratio); higher = better substrate or ligand; peptides without Tyr show the background;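 note: peptide library displayed on the E. coli surface as eCPX fusions, selected cells deep-sequenced, score is each peptide's frequency after selection divided by its frequency in the input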
Exercise: state measured SH2 binding enrichment for each of the sequences provided.
One number for each entry.

// known answers, use as guide
seq_text | measurement
SNNFIYKTLGV [FAM83B_Y639_YF] | 0.785
VNNAVYGIDAM [EIF3J_Y143] | 0.771

Here are 6 sequences. What values of SH2 binding enrichment were reported for them?
1. LHAALYKRKLL [TTLL5_Y542_E543K]
2. NYADPYRQLQY [CTNND2_Y503]
3. LTDTVYSSSSA [OR4C12_Y71_I67T]
4. TQPSPYAVYLF [RPGRIP1_Y823_R827L]
5. KYVKMCDNHQL [MYO9A_Y203_Y203C]
6. VPLATYMQIFK [RPL21_Y30_R32Q_YF]

1. 0.858
2. 0.892
3. 1.07
4. 1.16
5. 1.03
6. 0.859

Here are 4 sequences. What values of SH2 binding enrichment were reported for them?
1. KPNMNYDKLSR [FLI1_Y332]
2. QTLEAYIRCNK [SPAST_Y604_W607C]
3. NTCNRYCRDEI [ITGB3_Y660]
4. VGIMLYGVDSR [PKD1_Y3143]

1. 0.895
2. 0.76
3. 0.938
4. 0.888

Here are 2 sequences. What values of SH2 binding enrichment were reported for them?
1. EPVSDYINANI [PTPN11_Y304]
2. DRLASYLDKVP [KRT14_Y129_R134P]

1. 0.819
2. 1.04
